Tested on: Cell membrane
measurement-notes: Displacement of [3H]-WIN55212-2 from HEK293 cell membrane lacking CB1R and CB2R assessed as inhibition constant for higher affinity site
Assay type: subcellular
recorded-conditions: Homo sapiens
recorded-endpoint: log10 of KiH (log10 of the value in nM)

- compound-structure: "CCn1c(C)c(C(=O)c2ccc(C)c3ccccc23)c2ccccc21"
  log10 of KiH: 0.18
- compound-structure: "Cc1ccc(C(=O)c2c(C)n(CCN3CCOCC3)c3ccc(Cl)cc23)c2ccccc12"
  log10 of KiH: 1.00
- compound-structure: "Cc1ccc(C(=O)c2c3n(c4ccccc24)CCCC3)c2ccccc12"
  log10 of KiH: 0.74
- compound-structure: "Cc1c(C(=O)c2cccc3ccccc23)c2cccc3c2n1[C@@H](CN1CCOCC1)CO3"
  log10 of KiH: -1.57
- compound-structure: "Cc1c(C(=O)c2cccc3ccccc23)c2ccccc2n1C"
  log10 of KiH: 0.32
